System: CP211
assay: qHTS profiling for inhibitors of Plasmodium falciparum proliferation (AID 504749); note: nearly all actives have a fitted effect of over 60% in size
details: P. falciparum in erythrocytes, SYBR Green DNA, 72 h; series mostly up to 28.7 µM
Records with an inconclusive call do not appear. Active and inactive are the calls of the source. Calls come from the whole dose curve; as a rule, active = well fitted inhibition curve with a large enough effect; inconclusive = small, poorly fitted or top-dose-only effect; inactive = flat fitted curve, though single readings scatter.
Mark one answer only. Choices: 1.0 (active), 0.0 (inactive)

[
  {
    "compound": "C[C@@H]1CCC2[C@@H](C)[C@@H](O)O[C@@H]3O[C@@]4(C)CC[C@@H]1[C@@]23OO4 (stereo not given in full)",
    "system": "CP211",
    "classification": 1.0
  },
  {
    "compound": "Cc1c(C)c2c(c(C)c1O)CC[C@@](C)(CCC[C@@H](C)CCC[C@@H](C)CCCC(C)C)O2",
    "system": "CP211",
    "classification": 0.0
  },
  {
    "compound": "CCOC(=O)C1=C(C)NC(C)=C(C(=O)OCC)C1c1ccccc1C=CC(=O)OC(C)(C)C",
    "system": "CP211",
    "classification": 1.0
  }
]

Exercise: Any idea what this test logged for "C#CCOc1ccc2c(C)cc(=O)oc2c1" ?
Solution: 0.0

Exercise: Which outcome was assigned to "CCCCCCCCCCCCCC[n+]1ccc(C)cc1" in this test?
Solution: 1.0

----------
Tested on: HEK293
assay: Cytotoxic Profiling of Annotated Libraries Using Quantitative High-Throughput Screening (AID 1296008); note: nearly all actives have a fitted effect of over 60% in size
details: Five cell lines viability, CellTiter-Glo ATP luminescence, 48-72 h
Inconclusive results are not listed. Activity calls are given as the source filed them. Calls follow the shape of the dose curve; as a rule, active = well fitted inhibition curve with a large enough effect; inconclusive = small, poorly fitted or top-dose-only effect; inactive = flat fitted curve, though single readings scatter.
Please reply with one of these outcomes: active, inactive

Recorded results for 2 compounds are shown here.
[
  {
    "compound": "COc1cc(/C=C/C(=O)OC[C@H]2O[C@H](O[C@]3(CO)O[C@H](CO)[C@@H](O)[C@@H]3O)[C@H](O)[C@@H](O)[C@@H]2O)cc(OC)c1O",
    "classification": "inactive"
  },
  {
    "compound": "CC(C)NC[C@H](O)COc1ccc(CCOCC2CC2)cc1",
    "classification": "inactive"
  }
]

Exercise: Identify the outcome logged in this assay for the compound shown: C=C1C(=O)OC2CC(C)=C(C(C)CCCO[C@@H]3O[C@H](CO)[C@@H](O)[C@H](O)[C@H]3O)C(O)C12 (some centres undefined)
Solution: inactive

Exercise: How was CC(C)N(C[C@H]1O[C@@H](n2cnc3c(N)ncnc32)[C@H](O)[C@@H]1O)C1CC(CCc2nc3ccc(C(C)(C)C)cc3[nH]2)C1 (some centres undefined) classified in this test?
Solution: active

----------
Tested on: NIH3T3
assay: Cytotoxic Profiling of Annotated Libraries Using Quantitative High-Throughput Screening (AID 1296008); note: nearly all actives have a fitted effect of over 60% in size
details: Five cell lines viability, CellTiter-Glo ATP luminescence, 48-72 h
Inconclusive results are not listed. The source made the active and inactive calls. Calls come from the whole dose curve; as a rule, active = well fitted inhibition curve with a large enough effect; inconclusive = small, poorly fitted or top-dose-only effect; inactive = flat fitted curve, though single readings scatter.
measure: outcome

Known results for molecules:
[
  {
    "molecule": "NC1CCC(N[C@@H]2C[C@H]2c2ccccc2)CC1 (stereo not given in full)",
    "outcome": "inactive"
  },
  {
    "molecule": "OC[C@H]1O[C@@H](Oc2cc(O)cc(/C=C/c3ccc(O)cc3)c2)[C@H](O)[C@@H](O)[C@@H]1O",
    "outcome": "inactive"
  },
  {
    "molecule": "C=CC(C)(C)C1(CC2NC(=O)C3CCCN3C2=O)C(=O)Nc2cc3c(cc21)C=CC(C)(C)O3 (stereo not given)",
    "outcome": "inactive"
  },
  {
    "molecule": "CCCC1=CC2=C(CO1)C(=O)C(C)(OC(=O)c1c(C)cc(OC)cc1O)C(O)C2 (stereo not given)",
    "outcome": "inactive"
  }
]

Exercise: Param readout= outcome; system= NIH3T3; entry= NC(=O)c1ccc(OCC2NC(=O)C3CCCN3C2=O)cc1 (stereo not given) ; returns value.
Solution: inactive

----------
System: CP201
assay: qHTS profiling for inhibitors of Plasmodium falciparum proliferation (AID 504749); note: nearly all actives have a fitted effect of over 60% in size
details: P. falciparum in erythrocytes, SYBR Green DNA, 72 h; series mostly up to 28.7 µM
Experimental: NIH National Institute of Allergy and Infectious Diseases [NIAID] NIH Chemical Genomics Center [NCGC] […] Because mature erythrocytes lack DNA, only Plasmodium-derived DNA is detected. NCGC Assay Protocol Summary: The SYBR Green viability assay was adapted from a method described previously (Plouffe et al., 2008). […] The following morning, fluorescence intensity at 485(14) nm excitation and 535(25) nm emission wavelengths was measured on an EnVision (Perkin Elmer) plate reader. […]
Inconclusive results are not listed. Activity calls are given as the source filed them. Calls follow the shape of the dose curve; as a rule, active = well fitted inhibition curve with a large enough effect; inconclusive = small, poorly fitted or top-dose-only effect; inactive = flat fitted curve, though single readings scatter.
Output constraint: value belongs to active, inactive

Previously resolved entries follow.
[
  {
    "molecule": "CC(O)CO (stereo not drawn)",
    "classification": "inactive"
  },
  {
    "molecule": "CCCCCCOc1ccc(C(=N)N(CCCC)CCCC)c2ccccc12",
    "classification": "active"
  },
  {
    "molecule": "COC(F)(F)C(Cl)Cl",
    "classification": "inactive"
  },
  {
    "molecule": "Cc1ccccc1",
    "classification": "inactive"
  }
]

Exercise: Lab log entry: CO[C@H](C(=O)[C@@H](O)[C@@H](C)O)C1Cc2cc3cc(O[C@H]4C[C@@H](O[C@H]5C[C@@H](O)[C@H](O)[C@@H](C)O5)[C@@H](O)[C@@H](C)O4)c(C)c(O)c3c(O)c2C(=O)[C@H]1O[C@H]1C[C@@H](O[C@H]2C[C@@H](O[C@H]3C[C@](C)(O)[C@H](O)[C@@H](C)O3)[C@H](O)[C@@H](C)O2)[C@H](O)[C@@H](C)O1 (stereo partly drawn) — outcome as called in the assay?
Solution: active

Exercise: I would be grateful if you could indicate the recorded call for "C[C@]12CCC(=O)C=C1CC[C@@H]1[C@@H]2[C@@H](O)C[C@@]2(C)[C@H]1CC[C@]2(O)C(=O)COP(=O)(O)O" .
Solution: inactive

Exercise: Could you please tell me the result logged for COC(C(=O)C(O)C(C)O)C1Cc2cc3cc(OC4CC(OC5CC(O)C(O)C(C)O5)C(O)C(C)O4)c(C)c(O)c3c(O)c2C(=O)C1OC1CC(OC2CC(OC3CC(C)(O)C(O)C(C)O3)C(O)C(C)O2)C(O)C(C)O1 (stereo not drawn) in this assay?
Solution: active

Exercise: Hi team, can someone confirm the assay call for "CC[N+](C)(C)Cc1ccccc1Br" ?
Solution: inactive

----------
Consider the following compounds; for each one, report its max response.
System: CRL-7250
assay: Cytotoxic Profiling of Annotated Libraries Using Quantitative High-Throughput Screening (AID 1296008); note: nearly all actives have a fitted effect of over 60% in size; for max response: % is set by controls: 0 for no effect and ±100 for the full control effect
details: Five cell lines viability, CellTiter-Glo ATP luminescence, 48-72 h; hits give low values
Inconclusive results are not listed. Activity calls are given as the source filed them. The call rests on the fitted dose curve; in most records, active means well fitted inhibition curve with a large enough effect; inconclusive means small, poorly fitted or top-dose-only effect; inactive means flat fitted curve, though single readings scatter.

Use these answered entries as a reference point.
[
  {
    "compound": "C=CC(C)(O)CO[C@@H]1O[C@H](CO)[C@@H](O)[C@H](O)[C@H]1O (some centres undefined)",
    "system": "CRL-7250",
    "max response": "-1.51% (inactive)"
  },
  {
    "compound": "CN1CC[C@@H](NC(=O)Nc2ccc(C#N)cc2)C[C@@H]1c1nc2ccccc2[nH]1",
    "system": "CRL-7250",
    "max response": "-0.913% (inactive)"
  },
  {
    "compound": "O=C(O)CCc1cc2ccoc2cc1O[C@@H]1O[C@H](CO[C@@H]2OC[C@](O)(CO)[C@H]2O)[C@@H](O)[C@H](O)[C@H]1O",
    "system": "CRL-7250",
    "max response": "-5.99% (inactive)"
  }
]

# context switch: different compound, same max response
Exercise: I have this compound here, "CNC(=O)O[C@H]1COc2ccc(N3CCN(C4COC4)CC3)cc2[C@@H]1NC(=O)c1ccc(F)cc1" , and I need its recorded max response.
Solution: -2.36% (inactive)

----------
System: JEG-3
assay: Primary qHTS to identify gynecologic anti-cancer compounds using libraries of approved drugs and bioactive compounds (AID 1345084); note: % is set by controls: 0 for no effect and ±100 for the full control effect; nearly all actives have a fitted effect of over 55% in size
details: Gynecologic cancer cell panel viability, ATPlite luminescence, 48 h; series mostly up to 57.5 µM
Results filed as inconclusive are left out. Calls of active or inactive are those of the source. Calls follow the shape of the dose curve; as a rule, active = well fitted cell-killing curve with a large enough effect; inconclusive = small, poorly fitted or top-dose-only effect, or effect the other way; inactive = flat fitted curve, though single readings scatter.
measure: activity change, negative = cytotoxicity

Recorded results for 5 compounds are shown here.
[
  {
    "compound": "CC(=O)N[C@H]1CCN(c2ccc(C3=NOC(CN[S+](=O)([O-])C(C)C)C3)cc2F)C1 (stereo partly specified)",
    "system": "JEG-3",
    "activity change, negative = cytotoxicity": "inactive"
  },
  {
    "compound": "CC(C)=CCC[C@](C)(O[C@@H]1O[C@H](CO[C@@H]2OC[C@@H](O)[C@H](O)[C@H]2O)[C@@H](O)[C@H](O)[C@H]1O)[C@H]1CC[C@]2(C)[C@@H]1[C@H](O)C[C@@H]1[C@@]3(C)CC[C@H](O[C@@H]4O[C@H](CO)[C@@H](O)[C@H](O)[C@H]4O[C@@H]4O[C@H](CO)[C@@H](O)[C@H](O)[C@H]4O)C(C)(C)[C@@H]3CC[C@]12C",
    "system": "JEG-3",
    "activity change, negative = cytotoxicity": "inactive"
  },
  {
    "compound": "Cc1ccc2c(c1)C=Cc1cc(C)ccc1C2c1cn(Cc2ccc(C(=O)Nc3nn[nH]n3)o2)c(=O)[nH]c1=S",
    "system": "JEG-3",
    "activity change, negative = cytotoxicity": "inactive"
  },
  {
    "compound": "CC(C)c1nc(N(C)S(C)(=O)=O)nc(-c2ccc(F)cc2)c1/C=C/[C@@H](O)C[C@@H](O)CC(=O)O",
    "system": "JEG-3",
    "activity change, negative = cytotoxicity": "inactive"
  },
  {
    "compound": "COc1cccc(-n2nc(C(=O)O)cc2-c2ccc(C3CCCCC3)c(Cl)c2)c1",
    "system": "JEG-3",
    "activity change, negative = cytotoxicity": "inactive"
  }
]

The record that follows has no activity change, negative = cytotoxicity shown yet.
Exercise: # returns recorded activity change, negative = cytotoxicity (system: JEG-3) for CC1(CO)CC[C@]2(C(=O)O[C@@H]3O[C@H](CO)[C@@H](O)[C@H](O)[C@H]3O)CC[C@]3(C)C(=CCC4[C@@]5(C)CC[C@H](O[C@@H]6O[C@H](C(=O)O)[C@@H](O)[C@H](O)[C@H]6O)C(C)(C)C5CC[C@]43C)C2C1 (stereo partly specified)
Solution: 10.8% [at 11.6 µM] (inactive)
